Tested on: BaF3.p210
Assay: cytotoxicity in a panel of cell lines, Alamar Blue
Type: cell-based, mouse
Settings: BaF3.p210, single dose, 48 h, Alamar Blue; read-out: EC50, viable cells
metric: pEC50
Value format note: pEC50 is -log10 of concentration (mol/L); just state the number.

q: Which pEC50 reading was recorded for the compound CC(C)(C)OC(=O)NCc1cccc(N=C=S)c1 ?
a: 5.10

---

In this section, each of the compounds is paired with its reported EC50.
Molecular target: USP9x (Homo sapiens, UniProt Q93008)
Construct: endogenous in cells
Sequence (Q93008 whole entry): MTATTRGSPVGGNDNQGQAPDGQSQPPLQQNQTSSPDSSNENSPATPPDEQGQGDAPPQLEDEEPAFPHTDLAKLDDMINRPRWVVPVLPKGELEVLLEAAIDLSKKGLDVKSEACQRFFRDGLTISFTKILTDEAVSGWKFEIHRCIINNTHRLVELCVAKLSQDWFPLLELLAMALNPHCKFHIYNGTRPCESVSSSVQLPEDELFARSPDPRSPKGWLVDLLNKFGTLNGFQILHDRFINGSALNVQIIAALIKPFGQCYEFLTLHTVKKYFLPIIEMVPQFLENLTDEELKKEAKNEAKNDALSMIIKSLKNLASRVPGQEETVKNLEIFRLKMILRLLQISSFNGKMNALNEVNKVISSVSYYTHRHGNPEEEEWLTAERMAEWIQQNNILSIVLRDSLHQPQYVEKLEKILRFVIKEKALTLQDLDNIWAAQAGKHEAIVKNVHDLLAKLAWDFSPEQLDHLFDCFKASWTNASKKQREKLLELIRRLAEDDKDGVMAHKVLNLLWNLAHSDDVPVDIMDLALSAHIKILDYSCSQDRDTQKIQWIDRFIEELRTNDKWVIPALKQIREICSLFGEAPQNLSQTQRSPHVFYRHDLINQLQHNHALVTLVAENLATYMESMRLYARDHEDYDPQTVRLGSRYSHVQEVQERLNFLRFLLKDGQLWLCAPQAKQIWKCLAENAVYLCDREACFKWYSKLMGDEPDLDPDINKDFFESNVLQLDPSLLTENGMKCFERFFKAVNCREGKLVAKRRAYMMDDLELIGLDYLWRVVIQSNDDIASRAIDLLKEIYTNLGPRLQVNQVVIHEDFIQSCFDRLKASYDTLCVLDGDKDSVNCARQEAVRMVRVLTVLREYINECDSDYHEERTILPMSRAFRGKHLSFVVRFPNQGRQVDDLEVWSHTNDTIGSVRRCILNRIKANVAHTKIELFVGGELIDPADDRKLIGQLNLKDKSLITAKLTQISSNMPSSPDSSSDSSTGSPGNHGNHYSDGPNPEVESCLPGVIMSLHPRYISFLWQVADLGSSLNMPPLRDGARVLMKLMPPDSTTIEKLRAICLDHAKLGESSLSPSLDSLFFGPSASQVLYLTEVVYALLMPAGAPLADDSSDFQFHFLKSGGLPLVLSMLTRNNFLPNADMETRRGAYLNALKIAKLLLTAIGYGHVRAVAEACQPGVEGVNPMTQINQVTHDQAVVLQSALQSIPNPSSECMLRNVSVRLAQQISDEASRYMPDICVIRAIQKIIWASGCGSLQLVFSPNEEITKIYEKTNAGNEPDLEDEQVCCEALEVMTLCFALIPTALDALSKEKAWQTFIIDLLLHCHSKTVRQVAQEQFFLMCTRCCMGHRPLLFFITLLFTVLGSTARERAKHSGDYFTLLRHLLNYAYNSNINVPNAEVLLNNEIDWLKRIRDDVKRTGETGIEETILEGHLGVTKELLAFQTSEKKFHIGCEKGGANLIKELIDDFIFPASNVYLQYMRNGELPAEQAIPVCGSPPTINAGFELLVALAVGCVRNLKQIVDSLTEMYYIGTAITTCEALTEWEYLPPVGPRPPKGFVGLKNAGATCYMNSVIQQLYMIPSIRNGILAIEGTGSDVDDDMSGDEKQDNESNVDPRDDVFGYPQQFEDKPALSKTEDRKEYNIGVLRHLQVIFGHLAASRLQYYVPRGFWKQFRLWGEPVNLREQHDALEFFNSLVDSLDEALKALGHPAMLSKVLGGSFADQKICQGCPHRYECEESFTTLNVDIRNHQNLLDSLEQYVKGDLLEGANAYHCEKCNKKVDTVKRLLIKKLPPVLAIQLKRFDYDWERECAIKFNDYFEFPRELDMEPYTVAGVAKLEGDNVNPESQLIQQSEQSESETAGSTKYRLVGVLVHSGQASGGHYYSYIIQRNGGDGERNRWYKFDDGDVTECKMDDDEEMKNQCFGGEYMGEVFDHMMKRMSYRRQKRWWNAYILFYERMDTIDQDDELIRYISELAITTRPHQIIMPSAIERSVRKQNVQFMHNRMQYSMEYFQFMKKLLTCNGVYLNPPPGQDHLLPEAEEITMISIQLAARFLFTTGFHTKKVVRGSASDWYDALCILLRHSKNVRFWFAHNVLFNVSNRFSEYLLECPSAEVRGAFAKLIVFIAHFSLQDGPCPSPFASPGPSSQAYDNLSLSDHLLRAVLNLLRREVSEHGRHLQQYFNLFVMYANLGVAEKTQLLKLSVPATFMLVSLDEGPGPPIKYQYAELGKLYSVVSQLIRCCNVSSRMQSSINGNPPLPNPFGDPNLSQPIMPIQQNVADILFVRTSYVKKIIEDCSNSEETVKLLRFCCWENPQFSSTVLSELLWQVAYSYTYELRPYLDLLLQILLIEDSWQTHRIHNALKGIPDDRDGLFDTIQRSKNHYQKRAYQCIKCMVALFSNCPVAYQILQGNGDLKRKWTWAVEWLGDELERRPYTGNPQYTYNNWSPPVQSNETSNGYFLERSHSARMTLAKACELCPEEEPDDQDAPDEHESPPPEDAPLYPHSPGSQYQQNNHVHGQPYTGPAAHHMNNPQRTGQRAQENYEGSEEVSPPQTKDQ
Test: HA-Ub-VS labeling in K562 cell lysates
Conditions: compound 40 minutes, then HA-Ub-VS (1.5 μM) 20 minutes
Method: HA-Ub-VS is commonly used to label DUBs in cell lysates. […] A. and B. K562 cell lysates were treated with compound for 40 minutes prior to activity labeling with HA-Ub-VS (1.5 μM) for 20 minutes. Samples were analyzed by SDS-PAGE and immunoblotting with anti-HA antibody. C. […] Values were derived by fitting to the in Prism.
Respond numerically; units are µM and should not be typed.

{"mol_smiles": "CC(C)(C)OC(=O)NCc1ccc(NC(=S)Oc2ccc(Cl)cc2)cc1", "metric": "EC50", "reported_measurement": 45}
{"mol_smiles": "CC(C)(C)OC(=O)NCCc1ccc(N=C=S)cc1", "metric": "EC50", "reported_measurement": 11}

Moving on to another compound below.
q: Which EC50 reading was recorded for the compound CC(C)(C)OC(=O)NCc1cccc(N=C=S)c1 ?
a: 3
